assay: Terminal half life in rat at 1 mg/kg, iv; assay type: ADME, organism-based; set-up: dose 1 mg/kg, route intravenous; details: in vivo, read-out: beta t1/2 (converted)
measured.endpoint: half-life (h)
Write the value in h as a bare number.

Qu. Find the recorded half-life belonging to Cc1ccc(C(=O)NC2CC2)cc1-c1ccc2c(c1)NC(=O)C21CCCC1 and report it.
Ans. 5.3

* * *

assay: Volume of distribution at steady state in rat at 1 mg/kg, iv; assay type: ADME, organism-based; design: dose 1 mg/kg, route intravenous; conditions: in vivo, read-out: Vdss
measured.endpoint: Vd
The reply should read as a number followed by its unit.

Qu. Find the recorded Vd belonging to Cc1ccc(C(=O)NC2CC2)cc1-c1ccc2c(c1)NC(=O)C21CCCC1 and report it.
Ans. 0.8 L/kg
